Test system: SKBR3 breast cancer cells
Assay: Cell proliferation, SKBR3
Format: cell-based, human
Conditions: SKBR3, compared to negative controls
quantity: breast cancer cell proliferation

>  <substance>
U^FAAU^FACU^FGCCGGGU^FAAU^FGAU^FGGA [modified miR-200c]

>  <quantity>
breast cancer cell proliferation

>  <observed-value>
inhibited

$$$$
>  <substance>
U^FAACACU^FGU^FCU^FGGU^FAACGAU^FGU^F (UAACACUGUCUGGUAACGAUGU; U replaced by 5-fluorouracil, chemistry not fully specified) [modified miR-200a, miR-200a in which all (7) U bases are replaced by 5-fluorouracil]

>  <quantity>
breast cancer cell proliferation

>  <observed-value>
inhibited

$$$$
>  <substance>
U^FGAGGU^FAGU^FAGGU^FU^FGU^FAU^FAGU^FU^F [modified miR-let-7]

>  <quantity>
breast cancer cell proliferation

>  <observed-value>
inhibited

$$$$

Every entry's value here was drawn from patent US12319913B2.
